Test system: OVCAR-5 ovarian
Assay: NCI tumour cell line growth inhibition, 48 h
This listing pairs compounds with measured TGI.

CC(=O)Nn1c(Cc2ccc(Cl)cc2)nn(C)c1=O: > 100 µM

Which TGI is reported with OVCAR-5 ovarian for this entry: `CC(=O)n1nc(-c2[nH]c(C)c(-c3nn(C(C)=O)c(=S)o3)c2C)oc1=S` ?
> 100 µM

Queued: Cn1c(=O)oc2cc(C(O)CN3CCN(Cc4ccc5c(c4)OCO5)CC3)ccc21 (stereo unspecified)
> 100 µM

###

This listing pairs compounds with measured TGI.
System: BT-549 breast
Experiment: NCI tumour cell line growth inhibition, 48 h

Cc1ccc(NC(=O)CC(=O)N2N=C(N(c3ccccc3)c3ccccc3)CC2c2ccccc2)cc1 (stereo unspecified): > 100 µM

Continue with the next compound.
I'd like to know its TGI. The compound in question is `O=C1NC(=Nc2ccccc2Cl)N/C1=C\c1c(Cl)cccc1Cl`
> 100 µM

###

Tested on: DMS 114 small cell lung
Experiment: NCI tumour cell line growth inhibition, 48 h
endpoint: TGI

Guide cases for TGI, answers given:
N#CC(Cl)CS(=O)(=O)c1ccccc1 (stereo unspecified): 9.34 µM
COc1ccc(N=Nc2c(-c3ccccc3)nn(C(=O)CC(=O)Nc3ccc(OC)cc3)c2-c2ccccc2)cc1: > 100 µM
C=C1C2CCCC1C1(S(C)(=O)=O)CCCCC21O (stereo unspecified): > 100 µM
CCN(CC)CC(C(C)=O)C(c1ccccc1)c1c(O)c2ccccc2oc1=O (stereo unspecified): > 100 µM
COC1(OC)CCC2(C)OC(c3ccccc3)C1O2 (stereo unspecified): > 100 µM

Which TGI is reported with DMS 114 small cell lung for this entry: `O=C1C=C(Nc2cc(Cl)ccc2Cl)c2ccccc2C1=O` ?
76.2 µM

###

System: LOX IMVI melanoma
Assay: NCI tumour cell line growth inhibition, 48 h; in the data active = GI50 below about 0.43 µM; inactive = the rest
Bench note: report the call from active, inactive

Answered examples (3):
CN(C)C/C=C/C(=O)Nc1ccc(C(=O)Nc2cccc(Nc3ncc(Cl)c(-c4c[nH]c5ccccc45)n3)c2)cc1: active
O=C(Nc1nc2ccc(OC(F)(F)F)cc2s1)c1ccc(F)cc1: inactive
Cc1ccc(/C=C(/C#N)n2nnc3cccc(F)c32)cc1: active

Assay outcome for `c1ccc(C2=Nc3ccccc3N3CNN=C23)cc1` : what was it?
inactive

Queued: `CCN(CC)CCOc1ccc2c(-c3ccccc3)c(-c3ccc(OC)cc3)c(=O)oc2c1`
inactive

Queued: `CN1C(=O)[C@@H](CC2CCCC2)N(C2CCCC2)c2nc(Nc3cc(Cl)c(O)c(Cl)c3)ncc21`
inactive

Queued: `C=C1CC[C@@](C)(c2cc(Br)c(C)cc2OC(C)=O)[C@H]1C`
inactive

Queued: `COc1ccc(-c2cc(-c3ccc(Cl)cc3)nc(SCCCC(=O)NO)n2)cc1OC`
active

Queued: C/C=C(/C)C(=O)OC1C=C(CO)C(=O)C(OC(=O)C2(C)OC2C)C1C(C)C (stereo not given)
inactive

Queued: `CC(=O)[CH-]C(=O)c1ccccc1.CC(=O)[CH-]C(=O)c1ccccc1.CC(=O)[CH-]C(=O)c1ccccc1.[Cl-].[Hf+4]`
inactive

Queued: `N#C/C(=C\c1ccc(O)c(O)c1)C(=O)NCc1cccc(C(F)(F)F)c1`
inactive

Queued: `Oc1c(Cl)cc(Cl)c(Cl)c1Cc1c(O)c(Cl)cc(Cl)c1Cl`
inactive

Queued: `CCN1C[C@@H](C)n2c(c(O)c3c(=O)n(Cc4ccc(F)c(Cl)c4)nc(C(=O)NC)c32)C1=O`
inactive

Queued: `Cn1ccc(S(=O)(=O)N2CCC[C@H](Nc3nccc(-c4c(-c5cccc(O)c5)nc5occn45)n3)C2)n1`
inactive

Queued: `O=C(NNC1=NS(=O)(=O)c2ccccc2N1c1ccccc1)c1cnccn1`
inactive

Queued: `[CH3][Ge]([CH3])([CH2]CC#N)[S]c1ccccc1`
inactive

Queued: `CCN(CC)Cc1cc(Nc2ccnc3ccc(OC)cc23)ccc1O`
inactive

Queued: Fc1ccc(C2CC(c3cccc(Nc4ccncc4)c3)=NN2c2ccccc2)cc1 (stereo not given)
inactive

Queued: `O=C(O)C1CC[N-]CC1.O=C(O)C1CC[N-]CC1.[NH2-].[NH2-].[Pt+4]`
inactive

Queued: CCCCCCCCCCCCCCCC(=O)OCC1OC(OCCCC)[C@H](O[C@@H]2OC(C)C(OC(=O)CCC)C(O)C2O)C(O)C1O (stereo not given in full)
inactive

Each recorded value in this set is attributed to PubChem BioAssay (NCI).
